# STUDY_SYSTEM: human CLDN18.2 (human)
# METHOD: cell-based or functional assay
OBSERVATION_TYPE: ADCC EC50, Jurkat-CD16a v158-NFAT-luciferase effector cells, NIH-3T3-CLDN18.2 target cells

Data request: Sample chimeric antibody xi40F6 (antibody, human IgG1, kappa, V domains shown, Mouse variable regions on human IgG1/kappa; defucosylated, expressed in FUT8-knockout CHO-S cells; also called chimeric 40F6) VH: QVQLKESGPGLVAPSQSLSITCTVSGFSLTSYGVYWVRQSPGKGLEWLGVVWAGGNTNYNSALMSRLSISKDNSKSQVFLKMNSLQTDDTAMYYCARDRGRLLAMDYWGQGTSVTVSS VL: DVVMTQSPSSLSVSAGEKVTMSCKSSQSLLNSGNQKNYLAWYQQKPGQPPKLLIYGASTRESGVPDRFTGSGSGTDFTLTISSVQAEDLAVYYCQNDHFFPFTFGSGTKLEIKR — what was its ADCC EC50, Jurkat-CD16a v158-NFAT-luciferase effector cells, NIH-3T3-CLDN18.2 target cells?
Data returned: 14 pM

Data request: Sample humanized antibody hz40F6-2.3 (antibody, human IgG1, kappa, V domains shown) VH: QVQLVESGGGVVQPGRSLRLSCAASGFTLTSYGVYWVRQAPGKGLEWVAVVWAGGNTNYADALKGRFTISKDNSKSTLYLQMNSLRAEDTAVYYCARDRGRLLAMDYWGQGTLVTVSS VL: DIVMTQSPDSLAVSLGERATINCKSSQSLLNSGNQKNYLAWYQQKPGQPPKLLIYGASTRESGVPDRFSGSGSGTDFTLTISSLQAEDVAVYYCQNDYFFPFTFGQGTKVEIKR — what was its ADCC EC50, Jurkat-CD16a v158-NFAT-luciferase effector cells, NIH-3T3-CLDN18.2 target cells?
Data returned: 14 pM

Taken from patent US20240409629A1.
